Procedure details: yeast display, Sf9 membrane polyspecificity reagent, FACS + sequencing; frameworks hold sequencing errors
Quantity measured: polyreactivity (PSR sort gate)

{"Biosequence": "QVQLVESGGGLVQAGGSLRLSCAASGSIFGRNAMGWYRQAPGKERELVAAITWSGDSTYYADSVKGRFTISRDNAKNSVYLQMNSLKPEVTAVYYCAVKSYVPYLSYIYSFGYWGQGTQVTVSS", "Endpoint value": "low polyreactivity"}
{"Biosequence": "QVQLVESGGGLVQAGGSLRLSCAASGLTFYIYAMGWYRQAHGKERELVASISSSGGITYYADSVKGRFTISRDNAKNTVYLQMNSLKPEDTAVYYCAATYSHRRGDYWGQGTQVTVSS", "Endpoint value": "high polyreactivity"}
{"Biosequence": "QVQLVESGGGLVQAGGSLRLSCAASGRIFTQNAMGWNRQAPGKERELVAAISYSGVSTYYADSVKGRFTISRDNAKNTVYLQMNSLKPEDTAVFYCARRYWYPDAFYRYDYWGLGTQVTVSS", "Endpoint value": "low polyreactivity"}
{"Biosequence": "QVHLVESGGGLVQAGGSLRLSCAASGFTFVFYTMGWYRPAPGKERELVAAISHTGDSTYYADSVKGRFTISRDNAKNTVYFQMNSLKPEDTAVYYCATDLYTADPDPSPTYKFEYWGQGTQVTVSS", "Endpoint value": "low polyreactivity"}

Query string: Could you share which polyreactivity (PSR sort gate) value was measured for `QVQLVESGGGLVQAGGSLRLSCAASGLTFYRNVMGWYRQAPGKERELVAAISGNGGSTYYADSVKGRFTISRDNAKNTVYLQMNSLKPEDTAVYYCATRAYDTGYGYWGQGTQVTVSS` ?
Result string: high polyreactivity

###

Procedure details: yeast display, Sf9 membrane polyspecificity reagent, FACS + sequencing; frameworks hold sequencing errors

{"Biosequence": "QVQLVESGGGLVQAGGSLRLSCAASGSIFGSNAMGWYRQALGKERELVAAISDSTGSTYYADSVKGRFTISRDNAKNTVYLQMNSLKPEDTAVYYCDARTYYYRWHIYDYWGQGSQVTVSS", "polyreactivity (PSR sort gate)": "low polyreactivity"}
{"Biosequence": "QVQLQERGSGLVQAGGSLRLTCAESGAIFPAYLMGWYRQPPGKERELVAGISYGSITYCADSVKGRFNIIRDNAKNTVYLQMNSLKPEDTAVKYCAVWRPGGDEYYYWGQGTQVTVSS", "polyreactivity (PSR sort gate)": "low polyreactivity"}

###

Procedure details: yeast display, Sf9 membrane polyspecificity reagent, FACS + sequencing; frameworks hold sequencing errors

{"Biosequence": "QVQLVESRGGLVQAGGSLRLSCAAYGFTFPNNAMGWNRQAPGKERELVAAITWSGRSTYADSVKGRFTISRDNAKNTVYLQMNSLKPEDTAVDYCYTRGTYLSKTLPSAYDYWGQGTQVIVSS", "polyreactivity (PSR sort gate)": "low polyreactivity"}
{"Biosequence": "QVQLVESGGGLVQAGGSLRLSCAASGRTFYGNVMGWYRQAPGKERELVATISYSAGSTYYADSVKGRFTISRDNAKNTVYFQMNSLKPEDTAVYYCAAAGYVYHWAPRGSRYYYWGQGTQVTVSS", "polyreactivity (PSR sort gate)": "low polyreactivity"}

###

Procedure details: yeast display, Sf9 membrane polyspecificity reagent, FACS + sequencing; frameworks hold sequencing errors
Quantity measured: polyreactivity (PSR sort gate)

Worked examples, 6 sequences total:
{"Biosequence": "QVQHVESGGGLVQAGGSLRLSCAASGITFNEYAMGWYRQAPGKEREFVAAISSSGARTYYADSVKGRFTISRDNAKNTVYLQMNSLKPEDTAVYYCAAVYRSWTSYNGRNYWGQGTQVTVSS", "polyreactivity (PSR sort gate)": "high polyreactivity"}
{"Biosequence": "QVQHVESGGGLVQARGSLRLSCAASGSIFDLNAMGRYRQAPGKERELVAAISSGGGTYYADSVKGRFTISRDNSKNTVYLQMNSLKPVDTAVYYCKRVTRWTYNYWGQGTQVTVSS", "polyreactivity (PSR sort gate)": "high polyreactivity"}
{"Biosequence": "QVQLVESGGGLVQAGGSLRLSCAASGNIFYRNGMGWYRQAPGKEREFVAAISRRGGSTYYADSVKGRFTISRDNAKNTVYLQMNSLKPEDTAVYYCATRYWPTNKGEYWGQGTQVTVSS", "polyreactivity (PSR sort gate)": "high polyreactivity"}
{"Biosequence": "QVQLLESGGGLVLAGGSLRLSCAASGFIIRPYAIGWYRQAPGKERELVAAITYSSGSTYYADSVKGRFTISRDNAKYTVYLEMNSLKPEDTAVYYCNAEFWYETLYEYDYWGQGTQLTVSS", "polyreactivity (PSR sort gate)": "high polyreactivity"}
{"Biosequence": "QVQLIESGGGLDQAGGSLRLSCAASGFIFWEYAMGWYRQAPGKERELVAGISTSGGSTYYADSVKGLFTISRDNAKNTVYLQMNSLKPEDTAVYYCAVEGWDDTYFRQDMDYWGQGTQVTVSS", "polyreactivity (PSR sort gate)": "low polyreactivity"}
{"Biosequence": "QVQLVESWGGLVQAGGSLRLSCAASGRIFHRYAMGWYRQAPGKEREFVAAITYSTGTTYYADSVKGRFTISRDNAKITVYLQMNSLKPEDPAVYYCAKDRRFWHKTWFAYGYDYWGQGTQVTVSS", "polyreactivity (PSR sort gate)": "low polyreactivity"}

Query string: Quick one: polyreactivity (PSR sort gate) of `QVQLVESGGGLVQAGGSLRLSCAASGITFVPYAMGWYRQAPGKERELVAAISSSGGSTYYADSVKGRFTISRDNAKNTVYLQMNSLKPEDTAVYYCNVRTHSYIGMDYWGQGTQVTVSS` ?
Result string: low polyreactivity

Query string: Which polyreactivity (PSR sort gate) is listed for `QVQLVESGGGLVQAGGSLRLTCAASGNTFVSNAMGWYRQAPGKERELVAAINSGGSTNYADSVKGRFTISRDNAKNTVYLQMNSLKPEDTAVYYCNKDYDYPQRYWMDFWGQGTQVTVSS` ?
Result string: low polyreactivity

Query string: Item `QVQLVESGGGLVQAGGSLRLSCAASGSIFTYYVMGWYRQAPGKERELVATITGSSGSTYYADSVKGRFTISRDNAKNTVYLQMNSLKPEDTAVYYCNRTYYHYLYRGYGYWGQGTQVTVSS` has what recorded polyreactivity (PSR sort gate)?
Result string: low polyreactivity

###

Procedure details: yeast display, Sf9 membrane polyspecificity reagent, FACS + sequencing; frameworks hold sequencing errors
Quantity measured: polyreactivity (PSR sort gate)

{"Biosequence": "QVQLVESGGGLVQAGGSLRISCPASGTFYYYGMGWSRQAPGKERELVAAISWSGTSTFYADSVKGRFTISRDNAKNTVYIQMKSLKPEDTAVYYCHKPKFDSSGHDYWGQGTQETVSS", "polyreactivity (PSR sort gate)": "low polyreactivity"}
{"Biosequence": "HCQLVESGGVLVQEGGSLRISCAASGYTFTPYAMGWYRQAPGKEREFVAGITWRTGRTYYADSVKGRFTISRDIAKNTVYLQMISLKPEDTAVYYCNKYHQRRYYWSYDYWGQGTQVTVSS", "polyreactivity (PSR sort gate)": "low polyreactivity"}
{"Biosequence": "QVQLVESGGGLVQAGGSLRLSCAASGRIFGFNARGWYRQAPGKERELVAGITDSSGRTNYADSVKGRFTISRDNAKNTVYLQMNSLKPEDTAVYYCARRRFGQYTERYYWGQGTQVTVSS", "polyreactivity (PSR sort gate)": "low polyreactivity"}
{"Biosequence": "QVQLVESGGGLVQAGGSLRLSCAASGSIFAPNAMGWYRQAPGKERELVAAITLSGGSRYYADSVKGRFTISREIAMNNVYLQMNSLKPEDTAVYYCNADLLPADAPLWVTGGDYWGQGTQVTVSS", "polyreactivity (PSR sort gate)": "low polyreactivity"}
{"Biosequence": "QVQLVESGGGLVQAGGSLRLSCAASGFTYRTYAMGWYRQAPGKERELVAAITVSGGTYYADSVKGRFTISRDNAKNTVYFQMNSLKPEDTAVYYCTAKRFRTGFDYWGQGTQVTVSS", "polyreactivity (PSR sort gate)": "low polyreactivity"}
{"Biosequence": "QVQLVESGGGLVQEGGSLRLSCAASGFIFRYYAMGWYRQAPGKERELVAAISSSGGSTYYADSVKGRFTISRDNAKNTVYLQMNSLKPEDTAVSYCNAYNYGYIGYGYNYWGQGTQVTVSS", "polyreactivity (PSR sort gate)": "high polyreactivity"}

Query string: # lookup: polyreactivity (PSR sort gate) of `QVQLVESGGGLVQAGGSLRLSCAASGRIFLRNAMGWYRQAPGKERELVATITSRGGSTYYADSVKGRFTISRDNAKNTVYLQMNSLKQEDTAVYYCAADPRRYRGFGYVYGGFYYWGQGTQVTVSS`
Result string: low polyreactivity

Query string: Quick one: polyreactivity (PSR sort gate) for `QVQLVESGGGLVQAGGSLRLSCAASGFTFGRNVIGWYRQAPGKERELVAAISLSGGSTYYADSVKGRFTISRDNAKNTVYLQMNSLKPEDTAVYYCAAGYITWYDYWGQGTQVTVSS` ?
Result string: high polyreactivity

The measurements presented in this section are drawn from the nanobody polyreactivity screen of Harvey et al. (2022).
